- assay-target: hDRD2 (Homo sapiens);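 note: agonist activity at human DRD2 in DRD2-expressing cells, read as intracellular calcium mobilization with a FLIPR Calcium 4 fluorescent dye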
- Sequence (P14416 whole entry): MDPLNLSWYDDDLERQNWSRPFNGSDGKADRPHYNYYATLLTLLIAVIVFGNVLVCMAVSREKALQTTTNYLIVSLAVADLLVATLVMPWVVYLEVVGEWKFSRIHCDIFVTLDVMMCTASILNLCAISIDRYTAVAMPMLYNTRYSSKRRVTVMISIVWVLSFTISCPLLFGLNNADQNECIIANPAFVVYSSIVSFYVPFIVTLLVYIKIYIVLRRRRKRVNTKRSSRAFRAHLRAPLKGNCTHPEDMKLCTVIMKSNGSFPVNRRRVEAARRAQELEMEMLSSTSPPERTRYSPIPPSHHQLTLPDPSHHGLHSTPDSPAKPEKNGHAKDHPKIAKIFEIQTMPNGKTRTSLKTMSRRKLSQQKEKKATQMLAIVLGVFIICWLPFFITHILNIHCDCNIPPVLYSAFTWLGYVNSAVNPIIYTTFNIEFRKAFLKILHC
- test-summary: cell-based
- Parameters: host or cells: 'Cells expressing hDRD2'
- protocol-conditions: read-out: hDRD2 %Emax ± SEM
Decision: Emax compared against 90%; not below it gives Fulfilled, below it gives Not fulfilled.

Form field: Emax at least 90%? Entry: `C[C@@H](O)[C@@H]1NC(=O)[C@H](CCCCN)NC(=O)[C@@H](Cc2c[nH]c3ccccc23)NC(=O)[C@H](Cc2ccccc2)NC(=O)[C@H](Cc2ccccc2)NC(=O)[C@H](CCCNC(=N)N)NC(=O)[C@H](NCCSC[C@@H]2C[C@@H]3c4cccc5[nH]cc(c45)C[C@H]3N(C)C2)CCCCNC(=O)[C@H](Cc2cc(F)cc(F)c2)NC1=O` Not fulfilled

# bool: Emax of C[C@@H](O)[C@@H]1NC(=O)[C@H](CCCCN)NC(=O)[C@@H](Cc2c[nH]c3ccccc23)NC(=O)[C@H](Cc2ccncc2)NC(=O)[C@H](Cc2ccccc2)NC(=O)[C@H](CCCNC(=N)N)NC(=O)[C@H](NC[C@H](CCCCNC(=O)C[S+]([O-])C[C@@H]2C[C@@H]3c4cccc5[nH]cc(c45)C[C@H]3N(C)C2)NC(=O)C[S+]([O-])C[C@@H]2C[C@@H]3c4cccc5[nH]cc(c45)C[C@H]3N(C)C2)CCCCNC(=O)[C@H](Cc2ccccc2)NC1=O (stereo partly drawn) >= 90% Fulfilled

Is reported Emax greater than or equal to 90% here: `CC(=O)N(CCCN(C(C)=O)[C@@H]1CCCCNC(=O)[C@H](Cc2ccc(F)cc2)NC(=O)[C@H]([C@@H](C)O)NC(=O)[C@H](CCCCN)NC(=O)[C@@H](Cc2c[nH]c3ccccc23)NC(=O)[C@H](Cc2ccccc2)NC(=O)[C@H](Cc2ccccc2)NC(=O)[C@H](CCCNC(=N)N)NC1=O)C[C@@H]1C[C@@H]2c3cccc4[nH]cc(c34)C[C@H]2N(C)C1` Not fulfilled

Quick check: does `C[C@@H](O)[C@@H]1NC(=O)[C@H](CCCCN)NC(=O)[C@@H](Cc2c[nH]c3ccccc23)NC(=O)[C@H](Cc2ccncc2)NC(=O)[C@H](Cc2ccccc2)NC(=O)[C@H](CCCNC(=N)N)NC(=O)[C@H](NCC[S@+]([O-])C[C@@H]2C[C@@H]3c4cccc5[nH]cc(c45)C[C@H]3N(C)C2)CCCCNC(=O)[C@H](Cc2ccc(O)cc2)NC1=O` have Emax greater than or equal to 90%? Fulfilled

Form field: Emax at least 90%? Entry: `C[C@@H](O)[C@@H]1NC(=O)[C@H](CCCCN)NC(=O)[C@@H](Cc2c[nH]c3ccccc23)NC(=O)[C@H](Cc2ccccc2)NC(=O)[C@H](Cc2ccccc2)NC(=O)[C@H](CCCNC(=N)N)NC(=O)[C@H](NC[C@H](Cc2ccc(O)cc2)NC(=O)CSC[C@@H]2C[C@@H]3c4cccc5[nH]cc(c45)C[C@H]3N(C)C2)CCCCNC(=O)[C@H](Cc2ccc(F)cc2)NC1=O` Fulfilled

Determine whether this compound has Emax no lower than 90%: `C[C@@H](O)[C@@H]1NC(=O)[C@H](CCCCN)NC(=O)[C@@H](Cc2c[nH]c3ccccc23)NC(=O)[C@H](Cc2ccccc2)NC(=O)[C@H](Cc2ccccc2)NC(=O)[C@H](CCCNC(=N)N)NC(=O)[C@H](NC[C@H](Cc2ccc(O)cc2)NC(=O)CSC[C@@H]2C[C@@H]3c4cccc5[nH]cc(c45)C[C@H]3N(C)C2)CCCCNC(=O)[C@H](Cc2ccc(O)cc2)NC1=O` Fulfilled
